# measurement-target: hMAO B (Homo sapiens)
# Construct: purchased Sigma Aldrich M7441
# Sequence (P27338 1-520): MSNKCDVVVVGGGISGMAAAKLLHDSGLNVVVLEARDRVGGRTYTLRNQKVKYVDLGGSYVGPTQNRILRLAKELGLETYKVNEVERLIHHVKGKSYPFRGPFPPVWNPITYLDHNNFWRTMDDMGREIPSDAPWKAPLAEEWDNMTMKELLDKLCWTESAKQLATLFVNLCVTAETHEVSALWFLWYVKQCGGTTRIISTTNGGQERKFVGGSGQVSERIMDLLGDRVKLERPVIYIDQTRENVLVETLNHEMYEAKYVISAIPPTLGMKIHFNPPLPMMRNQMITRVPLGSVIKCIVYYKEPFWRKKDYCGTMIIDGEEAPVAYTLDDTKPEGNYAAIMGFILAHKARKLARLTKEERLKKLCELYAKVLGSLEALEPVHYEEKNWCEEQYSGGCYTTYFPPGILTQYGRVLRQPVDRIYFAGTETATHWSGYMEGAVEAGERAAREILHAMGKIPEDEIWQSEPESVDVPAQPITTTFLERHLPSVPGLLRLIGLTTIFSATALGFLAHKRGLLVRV
# method: hMAO B inhibition, fluorometric Amplex Red MAO assay
# Type: biochemical
# condition-summary: percent of inhibition at 1 μM; mean of two independent experiments; read-out: MAO B (%Inh.)
quantity: inhibition at 1 µM (%)
Note: unit % is implicit; provide only the numeric part.

Prompt line: Endpoint output: inhibition at 1 µM of `CC(C)(C)c1ccc(OCCCCCCN2CCCCC2)cc1.O=C(O)C(=O)O` . Value?
Response line: 13

Prompt line: I am curious: what inhibition at 1 µM value has been reported for CC1CC(C)CN(CCCOc2ccc(C(C)(C)C)cc2)C1.O=C(O)C(=O)O (stereo not drawn) ?
Response line: 37

Prompt line: Please look up its inhibition at 1 µM: CC1CC(C)CN(CCCCOc2ccc(C(C)(C)C)cc2)C1.O=C(O)C(=O)O (stereo not drawn)
Response line: 35

Prompt line: Which inhibition at 1 µM reading was recorded for the molecule CC1CCCCN1CCCCCOc1ccc(C(C)(C)C)cc1.O=C(O)C(=O)O (stereo not drawn) ?
Response line: 36

Prompt line: State the recorded inhibition at 1 µM for this entry: `CC1CCN(CCCOc2ccc(C(C)(C)C)cc2)CC1.O=C(O)C(=O)O`
Response line: 37

Prompt line: Request the reported inhibition at 1 µM associated with `CC1CCN(CCCCCCOc2ccc(C(C)(C)C)cc2)CC1.O=C(O)C(=O)O`
Response line: 10

Prompt line: Entry `CC(C)(C)c1ccc(OCCCCCN2CCCCCC2)cc1.O=C(O)C(=O)O` has what inhibition at 1 µM?
Response line: 18

Prompt line: Which inhibition at 1 µM reading was recorded for the molecule CC1CCCN(CCCCCOc2ccc(C(C)(C)C)cc2)C1.O=C(O)C(=O)O (stereo not drawn) ?
Response line: 33

Prompt line: Item under review: `CC1CCN(CCCCCOc2ccc(C(C)(C)C)cc2)CC1.O=C(O)C(=O)O` . Reported inhibition at 1 µM?
Response line: 39

---

# measurement-target: human histamine H3 receptor (hH3R) (Homo sapiens, UniProt Q9Y5N1)
# Construct: expressed in transfected cells
# Sequence (Q9Y5N1 whole entry): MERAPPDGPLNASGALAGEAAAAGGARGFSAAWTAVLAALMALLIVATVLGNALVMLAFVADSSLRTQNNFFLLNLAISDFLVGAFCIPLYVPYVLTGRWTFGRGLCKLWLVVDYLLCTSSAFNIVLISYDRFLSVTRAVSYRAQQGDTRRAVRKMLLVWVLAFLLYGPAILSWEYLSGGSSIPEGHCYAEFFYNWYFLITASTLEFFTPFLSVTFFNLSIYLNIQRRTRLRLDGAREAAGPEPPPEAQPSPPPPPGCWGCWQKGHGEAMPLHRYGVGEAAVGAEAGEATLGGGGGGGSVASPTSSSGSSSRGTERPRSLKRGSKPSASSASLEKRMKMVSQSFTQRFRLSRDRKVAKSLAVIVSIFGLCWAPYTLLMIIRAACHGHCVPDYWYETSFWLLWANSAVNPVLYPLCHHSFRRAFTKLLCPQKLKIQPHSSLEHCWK
# method: radioligand displacement binding assay, [3H]Nα-methylhistamine, HEK293 cells stably expressing hH3R
# condition-summary: HEK293 cells stably expressing human H3R, mean (95% CI)
# maps each entry to its Ki
# number only, unit nM dropped from output

Some compounds with known Ki results, for comparison:
>>> quantitative_readout("CC(C)(C)c1ccc(OCCCN2CCCCCC2)cc1.O=C(O)C(=O)O")
111
>>> quantitative_readout("CC1CCN(CCCCCCOc2ccc(C(C)(C)C)cc2)CC1.O=C(O)C(=O)O")
1350
>>> quantitative_readout("CC1(C)CCCN(CCCCCCOc2ccc(C(C)(C)C)cc2)C1.O=C(O)C(=O)O")
2580
>>> quantitative_readout("CC1CCCCN1CCCCOc1ccc(C(C)(C)C)cc1.O=C(O)C(=O)O (stereo not drawn)")
153

Prompt line: Return reported Ki; argument: `CC(C)(C)c1ccc(OCCCCCN2CCCCCC2)cc1.O=C(O)C(=O)O`
Response line: 324

Prompt line: What value of Ki has been recorded for this entry: `CC1(C)CCCN(CCCCCOc2ccc(C(C)(C)C)cc2)C1.O=C(O)C(=O)O`
Response line: 3540

Prompt line: Name the recorded Ki for `CC1(C)CCCN(CCCOc2ccc(C(C)(C)C)cc2)C1.O=C(O)C(=O)O` .
Response line: 1620

Prompt line: # query: Ki of entry `CC(C)(C)c1ccc(OCCCCCCN2CCCCC2)cc1.O=C(O)C(=O)O`
Response line: 225

Prompt line: Which measured Ki value corresponds to CC1CC(C)CN(CCCOc2ccc(C(C)(C)C)cc2)C1.O=C(O)C(=O)O (stereo not drawn) ?
Response line: 341

Prompt line: // query Ki value for entry CC1CCCCN1CCCOc1ccc(C(C)(C)C)cc1.O=C(O)C(=O)O (stereo not drawn)
Response line: 69

// data source = paper PMC7279487
